Can you tell me soluble fraction (log2) for the items I'm about to list?
- Assay Remarks: soluble fraction after stress (log2 fold change); higher = more stays soluble; pooled small domains, quantitative proteomics
- Recorded Conditions: stress: pH 4
Answers are plain numbers.

Examples with answers:
{"columns": ["Chain Sequence", "Value"],
 "data": [
  ["HMENTSPMTPEQSKALMAYLTKRHGDSREAYLSELSQFFGRPLSSSRELTKADVSEFLNAIN", -0.0703],
  ["HMDILPRMVASEMRAVGVPPERMTREEKGTVIRNLMNAGIHQMKGAVVEIARQLHLSEPTVYRYIKREKG", -0.177],
  ["HMRQSIHTALQLLTPREEEVLNLLVSGKSNKQVAEHFSLSSKTIERHRSSVMRKLDASSFAQLVRIAALR", -0.404],
  ["HMRKRLLQLVHIGKSQLGMDDETYRSLLSQQFYQNSAKNISYSELVKLVKILQQKGAKIRLPH", 0.262],
  ["HMSGSILVQVSATDLNIRKGPGTNYGTTGKYTGKGTFTIVETRSGQGSNAGWGKLKSGAGWISLDYAKR", -0.0233],
  ["HMLDSDARRRGLIEYLSLNGYATMRQLAGEFDVSINTIQRDITYLARYYPLETAYGRYGGGVYFEQNWQ", -1.04]
]}

Hi there! I need soluble fraction (log2) for each item below, if you can.
1. HMRISLKAQVYEYLKQAIINGDLKVGEIYSEQYFADKLSISRTPVREAILQLQHENMVEVKANRGIIVK
2. HMSSQLETTFATLIGKRVSIRLHDPEGGFRDILGHLESPYSLRNRHGNLIEFAHDQIFLWREVI
3. HMFTFEDMDKFESLLTTGLTDVQRRIYSLVTHDGKEYDLIAETLGISVEAVRMHMSRARKKIRENYKKID
4. HMGNQALSSVLSDIAGIGPVKTKELLRVYPDLDSLRQAPVEEVAKVKGIGRQLAQKIHDHFSSR
5. HMDLPDYYFRVRENGAVVFRVGTENRQRRIEMVEIATVNVKNGNIKPHGEVDLTKADRLAIGEWLAARQAQ
6. HMIEDMTINIEERLSLNGDIKKSEYILQYIKPDFIRKVILSPELNKGEIYIYDSKKKVMYLPLFDQVSEEI
7. HMDKLSYALGLSMGHNFLGSGIKSLNVEDFAKGVEAVYKQEKPEISFDEAKKIINEFFSNLQDEIAE
8. HMARAGKLAQDMAVWTKETMLNTERNFISLRHFKRELLRRTLAPGESEQTVRAMEEAGYIQVKDGLVFPIK

Reply |
1: -0.406; 2: -1.18; 3: -1.7; 4: -0.0357; 5: -0.27; 6: -1.09; 7: -1.33; 8: -0.511

Hi there! I need soluble fraction (log2) for each item below, if you can.
1. HMKLSKLTKPELDEIFRNANFTEEEEKVFWLLARGKSLEQISAKTFLPIATVNRRVKSIKDKIG
2. HMVNDDTIAATEAEILALLADKHRHHITELNSIRRPYEQIDAALSSLINEEKIFQEDGMLFV
3. HMIMHLNQIIRNKRLAAGLTQEALAQKVGVTAPAVSKWEKGISYPDITLLPILARNLNTDVNTLLDFSA
4. HMLYGRRFQVEGLNLERYLRAAADSGIPLKGARRFGRTLTGVAAEEHMAALEALARQGGWLFTPLEAVGAN
5. HMVMVVDVLKALSNNSSDKFFNTSISNAIKAQEDSQEDFVTLFGIEYEKLSPNNGLAVIFTSQ

Reply |
0.34
-0.908
0.0644
-0.0895
-0.816

Hi there! I need soluble fraction (log2) for each item below, if you can.
1. HMTVDIADALRVLGLSDAPDWSDVRAAHRRAIVRTHPDAGGSAGDAARVNQAFDLLRKISGNGERPIPG
2. HMASSVKAPLPGVILDIKVKVGDTIKNGDTVVILEAMKMENNIHSDKDGVVKSIEVNKGDSVLEGATLLTI
3. HMSSRNLIIFYDSPQAENALLATAERYGAILLHHYRNLHGIAVAIPADKDMAQAVTYFSRQPGVRQV
4. HMPVASNRDVNLDIGERVFVQEWAPNRTARVQYRGSPWEARLAPGAPAAAGEHRVSAVEGNWLVLEPA
5. HMKPFVVVPIDQVRVGMFIQLDLGWMQHPFPVGSFRVASEAQIDTLRSLDLESVRYLPAKSDPAFQQP
6. HMFTNSTSSRQLTNSDDTLRLNISSQTRQMLPNGQPFGGSLSGKLLLVIYGATTRSIPAQTTPEKIVV

Reply |
1: 0.0966; 2: -0.822; 3: 0.103; 4: -0.19; 5: -0.986; 6: 0.105

Hi there! I need soluble fraction (log2) for each item below, if you can.
1. HMQAATGVVTASVLNIRQGPGTNYTKVGSLLKGAQVEIVGQNGAWSKIRLKSGITGWVNSSYLKTST
2. HMGSLRSALDGIPGIGEQYQKRLLAQFGSVKAMRSASVEDFEAVRGIGRAKAQALYDALHAG

Reply |
-0.085
0.13

###

- Assay Remarks: soluble fraction after stress (log2 fold change); higher = more stays soluble; pooled small domains, quantitative proteomics
- Recorded Conditions: stress: pH 4
Value Type: soluble fraction (log2)
Numbers only.

{"columns": ["Chain Sequence", "soluble fraction (log2)"],
 "data": [
  ["HMTELLTPKQRQVFELALREGYYDVPRRTSITEMARLLGVAKSTLSAQMHRMEATVMSTFAEEIRKQ", 0.0506],
  ["HMTSKTLSAVEGEGLRLDKFLSNQLPELSRTKIQKMINDGLVFVNNTEAKASLILDGSEFIAYTVPD", -0.0789]
]}

Hi there! I need soluble fraction (log2) for each item below, if you can.
1. HMTPESSLHSGLGKILHDALTAKIQLTNFEAKFLSDMQSKYDLNGSFSWLSSKQQTTLEKILAKYGR
2. HMAIGERIRFLRTLRRMTQKELGLAAGFPEKNASIRMAQYENGTRTPKAELTAVLAEILKVSPQALTV
3. HMEGTAAAVALKGLMEQSGVDLREVMAAVESRGYYPKGTPFENYDPAFVSGVLVGAWDQVYKMILDQRPIP
4. HMAEDGNMTFEEYAKRWLARQVRYAPSTLESYRRMLGRVYPFIGAIPINRLRPIALENLLAELRKRT
5. HMIMDQTILRKQRELTDRLNRYRNEYYNHNKPSVSDEVYDRLFDELQSLEKETGVQMANSPTTTVG
6. HMTGMEASLSKLLQGEQFADLRKALIDKGIRKLEAFKRLNLWVFMNRNRLYSIGQRQTVYSTLQRALASE
7. HMEPDEIVLDHRKRIENSDAIVLIAPIWNFRMPAILEGWIDKVLAPPWAFKFKKLFGNYGYPVGNLKG
8. HMGSLGRAIRSRREKMKVGLEELAAKTGLSESHISDIEEGRGFAPVGDILKIARALTIDPGELLK

Reply |
0.0478
0.173
-1.1
-0.0982
0.0972
0.085
-0.121
0.426

###

- Assay Remarks: soluble fraction after stress (log2 fold change); higher = more stays soluble; pooled small domains, quantitative proteomics
- Recorded Conditions: stress: pH 4
Can you tell me soluble fraction (log2) for the items I'm about to list?

Examples with answers:
{"columns": ["Chain Sequence", "soluble fraction (log2)"],
 "data": [
  ["HMNQAIIVPDVKGLPLEEATTFFENNDLRYTVIDSVYTKDVPPGAIYEMVPGAGSKVKEGRIIFVTLNAR", -0.565],
  ["HMRPFAMNLLEKHKADIEVWLKHPNMTNTQIKRLLEELGTSVSVSSIDRFISTSFPKLPKHT", -0.207]
]}

Ask | Data request, read-out soluble fraction (log2), for HMNENYNLSKREKEVLDLLVNGKSYKVIATELAISYETVHSHIKKIYHKLHVSSIGEAVSKTIKQKIL
Reply | -0.561

###

Can you tell me soluble fraction (log2) for the items I'm about to list?
- Assay Remarks: soluble fraction after stress (log2 fold change); higher = more stays soluble; pooled small domains, quantitative proteomics
- Recorded Conditions: stress: pH 4
Give bare numbers.

Examples with answers:
{"columns": ["Chain Sequence", "Value"],
 "data": [
  ["HMPAFGALTLRQRDLVELIAQGLDNSQIAARLGLAEKTVRNHITMIFNKLEMENRSQVIVRARESGFGAVR", -0.228],
  ["HMAVTEVKTTAVVNMRSSDSEKADKLGKAQIGDTFRVLEQRANGWTKLTDGTQEFFIKSEYLEAIA", 0.0485],
  ["HMSLQDYYQVLGVFYNAGDKEIKRRWKELINQYHPDLAQAKGASPEEIENYTLKMAEINNAYEQIMKSRKA", 0.0253],
  ["HMNEMEFAQRLRQFRKAKNLTQQELADRLGVSNKSVSRWESGSYPDVGTLVALARALGVTVDELLDPKA", 0.149],
  ["HMDGRIRFRHAALHDPDVAARLHDYLTTSLPGVRSARVNSQTGSLLLEYDPEVLDRSTLLDLAARAESLL", -1.06],
  ["HMESSYKGFILDIETRQFSPTLIQRRGIAINPSGIVETTTEFSFATQEKVLIEDLKLIIDELDLRADY", -2.31]
]}

Hi there! I need soluble fraction (log2) for each item below, if you can.
1. HMHPEPDPVLFIDGKEYPYDKLSELDETRVQSMTILPKKSAVKKYGDKYANRSIMEITLKKEN
2. HMGQISLSVNAIPEKAEVILDGNSIGNTPIRKNTITPGSHMFEIEKKGYAPISYDIYVNPSKAINLDFFM
3. HMKQVEVESVIGKSEEAANSILTKAGLKVNIGYKEDSSKPTDTVLSQDPAPGEKVDEGTTVTIVVNNYKKP
4. HMIILDASASRAIGNGTIEETKWDFGNGESSTNRGGPIVERQIYANQAAYILKLSMKTNDGQLFTKEIQLL
5. HMADPAVLIAELFRAMPEKRFSVKNLISATGAETREQKDYVREVVHSLSREGMIEQVAEGKYRLSASE

Reply |
0.22
-0.153
-0.127
-0.0529
0.241
